Entry source: ChEMBL document CHEMBL4177573

- target.of.assay: Neuropeptide Y receptor type 2 (Homo sapiens)
- Sequence (P49146 whole entry): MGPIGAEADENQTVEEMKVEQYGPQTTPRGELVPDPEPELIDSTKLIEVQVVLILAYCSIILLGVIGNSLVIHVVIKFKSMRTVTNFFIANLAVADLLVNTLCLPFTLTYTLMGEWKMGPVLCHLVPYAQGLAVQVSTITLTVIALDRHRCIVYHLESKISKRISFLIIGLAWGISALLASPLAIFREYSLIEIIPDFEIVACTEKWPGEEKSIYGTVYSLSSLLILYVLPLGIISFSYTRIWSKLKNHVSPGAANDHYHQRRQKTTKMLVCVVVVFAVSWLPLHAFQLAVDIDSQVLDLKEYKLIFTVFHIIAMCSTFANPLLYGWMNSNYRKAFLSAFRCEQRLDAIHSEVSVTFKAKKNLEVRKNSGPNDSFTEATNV
- assay.info: Displacement of [125I]-PYY from human neuropeptide Y2 receptor expressed in CHO cell membranes incubated for 60 mins by TopCount based method
Square brackets hold non-standard residues; d marks the D form. Peptide text beside a SMILES is read from it. 4Pal = N[C@@H](Cc1ccncc1)C(=O)O; Cha = N[C@@H](CC1CCCCC1)C(=O)O; Aib = CC(C)(N)C(=O)O
parameter: IC50 (nM)
All answers are understood in nM, so give the number only.

// below: answered molecules
[[record]]
molecule = "CC[C@](C)(NC(=O)[C@H]1CCCN1C(=O)[C@H](CO)NC(C)=O)C(=O)N[C@@H](Cc1ccncc1)C(=O)N[C@@H](CC1CCCCC1)C(=O)N[C@@H](CC(C)(C)C)C(=O)N[C@@H](CC(N)=O)C(=O)N[C@@H](CCCCN)C(=O)NC(C)(C)C(=O)N[C@H](C(=O)N[C@@H](CCCNC(=N)N)C(=O)N[C@@H](CCC(N)=O)C(=O)N[C@@H](CCCNC(=N)N)C(=O)N[C@@H](CC1CCCCC1)C(N)=O)[C@@H](C)O"
parameter = "IC50"
assay_value = 0.4

[[record]]
molecule = "CC[C@@](C)(NC(=O)[C@H](CCCCN)NC(=O)[C@H](CC(N)=O)NC(=O)C(C)(C)NC(=O)[C@H](CC1CCCCC1)NC(=O)[C@H](Cc1ccncc1)NC(=O)[C@H](CCCNC(=N)N)NC(=O)[C@H]1CCCN1C(=O)[C@H](CO)NC(C)=O)C(=O)N[C@H](C(=O)N[C@@H](CCCNC(=N)N)C(=O)N[C@@H](CCC(N)=O)C(=O)N[C@@H](CCCNC(=N)N)C(=O)N[C@@H](CC1CCCCC1)C(N)=O)[C@@H](C)O"
parameter = "IC50"
assay_value = 0.27

[[record]]
molecule = "CC[C@](C)(NC(=O)[C@H]1C[C@H](O)CN1C(=O)[C@H](CO)NC(=O)c1c[nH]cn1)C(=O)N[C@@H](Cc1ccncc1)C(=O)N[C@@H](CC1CCCCC1)C(=O)N[C@@H](CC(C)(C)C)C(=O)N[C@@H](CC(N)=O)C(=O)N[C@@H](CCCCN)C(=O)NC(C)(C)C(=O)N[C@H](C(=O)N[C@@H](CCCNC(=N)N)C(=O)N[C@@H](CCC(N)=O)C(=O)N[C@@H](CCCNC(=N)N)C(=O)N[C@@H](CC1CCCCC1)C(N)=O)[C@@H](C)O"
parameter = "IC50"
assay_value = 0.31

[[record]]
molecule = "CC(=O)N[C@@H](CO)C(=O)N1CCC[C@@H]1C(=O)NC(C)(C)C(=O)N[C@@H](Cc1ccncc1)C(=O)N[C@@H](CC1CCCCC1)C(=O)NC(C)(C)C(=O)N[C@@H](CC(N)=O)C(=O)N[C@@H](CCCCN)C(=O)NC(C)(C)C(=O)N[C@H](C(=O)N[C@@H](CCCNC(=N)N)C(=O)N[C@@H](CCC(N)=O)C(=O)N[C@@H](CCCNC(=N)N)C(=O)N[C@@H](CC1CCCCC1)C(N)=O)[C@@H](C)O"
parameter = "IC50"
assay_value = 4.5


[in] Reported IC50 for CC(=O)N[C@@H](CO)C(=O)NC(C)(C)C(=O)N[C@@H](CCCNC(=N)N)C(=O)N[C@@H](Cc1ccncc1)C(=O)N[C@@H](CC1CCCCC1)C(=O)NC(C)(C)C(=O)N[C@@H](CC(N)=O)C(=O)N[C@@H](CCCCN)C(=O)NC(C)(C)C(=O)N[C@H](C(=O)N[C@@H](CCCNC(=N)N)C(=O)N[C@@H](CCC(N)=O)C(=O)N[C@@H](CCCNC(=N)N)C(=O)N[C@@H](CC1CCCCC1)C(N)=O)[C@@H](C)O (Ac-S[Aib]R[4Pal][Cha][Aib]NK[Aib]TRQR[Cha]-NH2) : what is it?
[out] 0.41
